- TESTED_TARGET: maternal embryonic leucine-zipper kinase (MELK) (Homo sapiens, UniProt Q14680)
- Construct: recombinant MELK protein
- Sequence (Q14680 whole entry): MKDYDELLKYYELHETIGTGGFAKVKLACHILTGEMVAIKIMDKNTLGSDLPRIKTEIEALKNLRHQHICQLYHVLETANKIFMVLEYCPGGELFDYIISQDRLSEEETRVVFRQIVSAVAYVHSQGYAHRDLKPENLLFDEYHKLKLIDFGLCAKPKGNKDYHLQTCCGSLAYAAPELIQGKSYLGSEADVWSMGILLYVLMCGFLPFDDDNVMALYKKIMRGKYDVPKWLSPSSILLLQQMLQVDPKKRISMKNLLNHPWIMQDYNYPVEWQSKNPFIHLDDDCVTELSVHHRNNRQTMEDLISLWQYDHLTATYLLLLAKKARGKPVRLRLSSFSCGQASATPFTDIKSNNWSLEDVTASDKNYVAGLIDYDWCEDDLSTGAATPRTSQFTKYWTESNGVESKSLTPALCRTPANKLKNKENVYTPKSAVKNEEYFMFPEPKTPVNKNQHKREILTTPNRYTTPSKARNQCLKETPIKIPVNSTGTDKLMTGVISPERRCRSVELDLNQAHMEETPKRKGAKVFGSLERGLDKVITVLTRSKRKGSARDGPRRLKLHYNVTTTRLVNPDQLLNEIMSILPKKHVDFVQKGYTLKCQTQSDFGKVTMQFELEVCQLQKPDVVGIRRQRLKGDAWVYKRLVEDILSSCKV
- TEST: in vitro kinase assay with recombinant MELK, ten-dose curve
ATTRIBUTE_MEASURED: pIC50
Scale for pIC50: -log10 of concentration given in mol/L; no unit attached.

Look up pIC50 with maternal embryonic leucine-zipper kinase (MELK) (Homo sapiens, UniProt Q14680) for this compound: `CCc1c[nH]c(=O)c2c1[nH]c1ccc3cc(OC)ccc3c12`
7.38
